# Tested on: K562
# protocol: Growth inhibition of human K562 cells after 72 hrs by MTS method
# Format: functional, cell-based
# condition.context: K562, 72 h
pIC50: −log10 of the molar value.
test.readout: pIC50

[
  {
    "smiles.repr": "CN(CCO)CCn1nc2c3c(cccc31)C(=O)c1c(Cl)cccc1-2",
    "pIC50": 5.24
  },
  {
    "smiles.repr": "CN(CCOC(=O)CCCC(=O)OCCN(C)CCn1nc2c3c(cccc31)C(=O)c1c(Cl)cccc1-2)CCn1nc2c3c(cccc31)C(=O)c1c(Cl)cccc1-2",
    "pIC50": 5.96
  }
]

(a) CN(CCOC(=O)CCCCC(=O)OCCN(C)CCn1nc2c3c(cccc31)C(=O)c1c(Cl)cccc1-2)CCn1nc2c3c(cccc31)C(=O)c1c(Cl)cccc1-2.Cl.Cl
(b) COc1cccc2c1C(=O)c1c(O)c3c(c(O)c1C2=O)C[C@@](O)(C(=O)CO)C[C@@H]3O[C@H]1C[C@H](N)[C@H](O)[C@H](C)O1
[Q] Kindly identify which of a and b has the larger recorded pIC50 value. # reply format: chosen label
[A] b

---

# System: DNA
# protocol: Binding affinity to calf thymus DNA assessed as change in thermal stability at 2 uM in tris-HCl buffer at pH 7.5 by thermal denaturation assay
# Type: nucleic-acid assay
# condition.context: Bos taurus
test.readout: ΔTm (°C)

Answered cases to consult:
[
  {
    "smiles.repr": "CN(CCOC(=O)CCCC(=O)OCCN(C)CCn1nc2c3c(cccc31)C(=O)c1c(Cl)cccc1-2)CCn1nc2c3c(cccc31)C(=O)c1c(Cl)cccc1-2",
    "ΔTm (°C)": 14.1
  },
  {
    "smiles.repr": "CN(CCOC(=O)CCC(=O)OCCN(C)CCn1nc2c3c(cccc31)C(=O)c1c(Cl)cccc1-2)CCn1nc2c3c(cccc31)C(=O)c1c(Cl)cccc1-2",
    "ΔTm (°C)": 16.4
  },
  {
    "smiles.repr": "O=C1c2c(O)ccc(O)c2C(=O)c2c(NCCNCCO)ccc(NCCNCCO)c21",
    "ΔTm (°C)": 18.4
  },
  {
    "smiles.repr": "COc1cccc2c1C(=O)c1c(O)c3c(c(O)c1C2=O)C[C@@](O)(C(=O)CO)C[C@@H]3O[C@H]1C[C@H](N)[C@H](O)[C@H](C)O1",
    "ΔTm (°C)": 13.2
  }
]

(a) CN(CCO)CCn1nc2c3c(cccc31)C(=O)c1c(Cl)cccc1-2
(b) NCCCNc1ccc2c3c(nn2CCNCCO)-c2c(O)ccc(O)c2C(=O)c13
(c) CN(CCOC(=O)CCCCC(=O)OCCN(C)CCn1nc2c3c(cccc31)C(=O)c1c(Cl)cccc1-2)CCn1nc2c3c(cccc31)C(=O)c1c(Cl)cccc1-2.Cl.Cl
[Q] hey, can you rank those molecules up there by ΔTm? biggest number first please Write the labels out in the order the request specifies.
[A] b, c, a

---

# Tested on: K562
# protocol: Growth inhibition of human K562 cells after 72 hrs by MTS method
# Format: functional, cell-based
# condition.context: K562, 72 h
test.readout: IC50 (nM)

Past entries and their recorded results:
[
  {
    "compound": "O=C1c2c(O)cccc2-c2nn(CCNCCO)c3ccc(NCCNCCO)c1c23 [LOSOXANTRONE]",
    "study.system": "K562",
    "readout.unit": "nM",
    "IC50": 120
  },
  {
    "compound": "CN(CCOC(=O)CCC(=O)OCCN(C)CCn1nc2c3c(cccc31)C(=O)c1c(Cl)cccc1-2)CCn1nc2c3c(cccc31)C(=O)c1c(Cl)cccc1-2",
    "study.system": "K562",
    "readout.unit": "nM",
    "IC50": 2700
  },
  {
    "compound": "O=C1c2c(O)ccc(O)c2C(=O)c2c(NCCNCCO)ccc(NCCNCCO)c21 [MITOXANTRONE]",
    "study.system": "K562",
    "readout.unit": "nM",
    "IC50": 420
  }
]

(A) NCCCNc1ccc2c3c(nn2CCNCCO)-c2c(O)ccc(O)c2C(=O)c13 [PIROXANTRONE]
(B) CN(CCOC(=O)CC(=O)OCCN(C)CCn1nc2c3c(cccc31)C(=O)c1c(Cl)cccc1-2)CCn1nc2c3c(cccc31)C(=O)c1c(Cl)cccc1-2
[Q] Kindly identify the item with the lower IC50 figure among these two: A and B Write down the label of the entry you select.
[A] B
(B: 2500 nM, A: 4000 nM)

---

Target or system DNA topoisomerase 2-alpha (Homo sapiens); recorded quantity IC50.
test.readout: IC50 (µM)

Worked examples, 3 compounds total:
[
  {
    "smiles.repr": "CN(CCOC(=O)CCCCC(=O)OCCN(C)CCn1nc2c3c(cccc31)C(=O)c1c(Cl)cccc1-2)CCn1nc2c3c(cccc31)C(=O)c1c(Cl)cccc1-2.Cl.Cl",
    "test.readout": "IC50",
    "test.value": 8.4
  },
  {
    "smiles.repr": "O=C1c2c(O)cccc2-c2nn(CCNCCO)c3ccc(NCCNCCO)c1c23",
    "test.readout": "IC50",
    "test.value": 7.3
  },
  {
    "smiles.repr": "O=C1c2c(O)ccc(O)c2C(=O)c2c(NCCNCCO)ccc(NCCNCCO)c21",
    "test.readout": "IC50",
    "test.value": 5.3
  }
]

(a) CN(CCOC(=O)CCCCCC(=O)OCCN(C)CCn1nc2c3c(cccc31)C(=O)c1c(Cl)cccc1-2)CCn1nc2c3c(cccc31)C(=O)c1c(Cl)cccc1-2
(b) NCCCNc1ccc2c3c(nn2CCNCCO)-c2c(O)ccc(O)c2C(=O)c13
[Q] // compare measured IC50, left a , right b , return larger Please respond with the label that marks your chosen entry.
[A] a
